Data origin: paper PMC7377239

Below is a list of entries, each paired with its recorded activity at 1 µM value.
tested on: iCell cardiomyocytes (human iPSC-derived cardiomyocytes); assay: Intracellular Ca2+ flux / beating parameters in iCell cardiomyocytes (FLIPR tetra), 90 min or 24 h; type: cell-based; conditions: Homo sapiens, Cardiomyocyte, 24 h, 1.00 µM; 0.00 µM = 100.00; read-out: cm.bpm.24hrs
Structures can show the parent of a compound that is named as a salt.
Response body: numeric value in %, unit text excluded.

Guide cases for activity at 1 µM, answers given:
{"COMPOUND": "O=S(=O)(O)Oc1cccc(-c2ccc(Cl)cc2)c1 [3'-yl PCB 3 sulfate]", "PROPERTY": "activity at 1 µM", "UOM": "%", "RESULT VALUE": 89.7}
{"COMPOUND": "Clc1ccc(-c2ccccc2)cc1", "PROPERTY": "activity at 1 µM", "UOM": "%", "RESULT VALUE": 103}
{"COMPOUND": "O=C1C=CC(=O)C(c2ccc(Cl)cc2)=C1", "PROPERTY": "activity at 1 µM", "UOM": "%", "RESULT VALUE": 93.6}

Kindly consider the entry below.
Entry `COc1ccc(-c2ccc(Cl)cc2)cc1` — recorded activity at 1 µM = 95.5
